B1: Azoarcus group I ribozyme (parent)
chain: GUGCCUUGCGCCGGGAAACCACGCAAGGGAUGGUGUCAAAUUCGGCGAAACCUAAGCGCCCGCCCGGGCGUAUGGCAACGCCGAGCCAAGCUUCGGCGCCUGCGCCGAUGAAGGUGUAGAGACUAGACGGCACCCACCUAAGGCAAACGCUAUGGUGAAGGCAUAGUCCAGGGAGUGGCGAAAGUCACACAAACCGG

Variants of: B1
procedureDetails: reverse-splicing fitness (ratio to wild type); higher = more active; in vitro selection; Mg2+ level not given
# reverse-splicing fitness >= 0.02 gives satisfied, anything below gives not satisfied

-- ask Quick check, reverse-splicing fitness >= 0.02? C82U A111G A120C C150U C169U U176A
-- reply not satisfied

-- ask Quick check, reverse-splicing fitness >= 0.02? C82G A111G A120U A145U U176C
-- reply satisfied

-- ask Quick check, reverse-splicing fitness >= 0.02? A111G A120G A145G C150A C169G
-- reply satisfied

-- ask Quick check, reverse-splicing fitness >= 0.02? C82U A120U A145G C150U U176G
-- reply not satisfied

-- ask Quick check, reverse-splicing fitness >= 0.02? C82G A111C A120C A145U C150U C169U U176G
-- reply not satisfied

-- ask Quick check, reverse-splicing fitness >= 0.02? C82A A111G A145C C150U
-- reply satisfied

-- ask Quick check, reverse-splicing fitness >= 0.02? A111G C150G C169U U176A
-- reply not satisfied

-- ask Quick check, reverse-splicing fitness >= 0.02? C82U A111G A120C
-- reply satisfied

-- ask Quick check, reverse-splicing fitness >= 0.02? A111U A120U A145C C150G C169U U176A
-- reply not satisfied

-- ask Quick check, reverse-splicing fitness >= 0.02? C82G A111C A120C A145C C150A C169A U176A
-- reply not satisfied

-- ask Quick check, reverse-splicing fitness >= 0.02? A111U A120G A145U C150G C169G U176C
-- reply not satisfied

-- ask Quick check, reverse-splicing fitness >= 0.02? C82G A111U C150U C169U
-- reply not satisfied
